Hey, just so you know, these numbers are from PubChem BioAssay (NCI).

system: HCT-15 colon; test: NCI tumour cell line growth inhibition, 48 h; in the data active = GI50 below about 0.43 µM; inactive = the rest
Bench note: report the call from active, inactive

Record request — test call for COc1ccc(OC)c(-c2cc(-c3ccc(Cl)cc3)nn2-c2ccc(S(=O)(=O)NC(C)=O)cc2)c1
inactive

Dear all, I need the recorded test outcome for CC(C)(C)CC(C)(C)NCc1cc(C(C)(C)C)cc(CNC(C)(C)CC(C)(C)C)c1O , thank you.
inactive

What call does the record list for CN1C(=O)N[C@H]2[C@@H]3NC(=O)c4ccc(Br)n4[C@@H]3C[C@]21O ?
inactive

For this compound, state the assay outcome: Cc1cc(C)c(Cn2cnc3c(Cl)ncnc32)c(C)c1CCl
active

Per the assay record, what outcome was assigned to O=C(/C=C/c1ccccc1)n1c(-c2ccc(Cl)cc2)nc2ccccc21 ?
inactive

Identify the outcome logged in this assay for the compound shown: CCN(CC)CCCNC(=O)c1c2c(n3ccccc13)C(=O)c1ncccc1C2=O
inactive

Write down the call the test reported for this compound. Item: C=C1CCC2C(C)(COC(=O)CC)C(OC(=O)CC)CCC2(C)C1C/C=C1/C(=O)OCC1OC(=O)CC (stereo not given)
inactive

Hey, what did the test say about COc1ccc2nc3cc([N+](=O)[O-])ccc3c(NCCCN(C)C)c2c1 ?
inactive

State the result this test recorded for CCOC(=O)CC1C(COC(=O)NC)OC(n2cnc3c(NC(=O)Nc4ccccc4)ncnc32)C1O[Si](C)(C)C(C)(C)C (stereo not given) .
inactive

Hi team, can someone confirm the assay call for COc1ccc(/C=N\Nc2ccc([N+](=O)[O-])cn2)cc1OC ?
inactive
